Target: T1, recombinant human TIGIT (Sino Biological) (human, UniProt Q495A1 22-138)
T1 construct: Bought protein; NP_776160.2; also called human TIGIT antigen; hTIGIT
T1 sequence: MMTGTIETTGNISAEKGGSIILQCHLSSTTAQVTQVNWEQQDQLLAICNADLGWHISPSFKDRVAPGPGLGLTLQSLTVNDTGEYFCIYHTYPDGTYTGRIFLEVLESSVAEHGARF
Assay: SPR (Biacore T200), single cycle kinetics, IgG from supernatant captured on anti-human chip, TIGIT as analyte, 1:1 fit;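 note: measured at 25 °C in HBS-P+ with 1% BSA, four ascending TIGIT concentrations, 210 s association per step, one final 900 s dissociation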
METRIC NAME: pKd
Answer as the number alone; pKd is minus log10 of concentration in mol/L.

Sample 7A6 VH5/Vκ3 humanized antibody (human IgG1, kappa) (antibody, V domains shown, Tested as IgG in supernatant of transiently transfected HEK293 EBNA cells) VH: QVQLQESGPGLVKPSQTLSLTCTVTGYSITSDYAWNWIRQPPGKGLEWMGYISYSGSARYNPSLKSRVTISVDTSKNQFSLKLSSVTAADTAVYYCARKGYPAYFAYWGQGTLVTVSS VL: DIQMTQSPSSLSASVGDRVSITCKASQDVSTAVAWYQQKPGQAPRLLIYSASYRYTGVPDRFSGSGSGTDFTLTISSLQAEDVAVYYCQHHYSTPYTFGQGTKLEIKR — what was its pKd?
8.82

Sample 7A6 VH3/Vκ1 humanized antibody (human IgG1, kappa) (antibody, V domains shown, Tested as IgG in supernatant of transiently transfected HEK293 EBNA cells) VH: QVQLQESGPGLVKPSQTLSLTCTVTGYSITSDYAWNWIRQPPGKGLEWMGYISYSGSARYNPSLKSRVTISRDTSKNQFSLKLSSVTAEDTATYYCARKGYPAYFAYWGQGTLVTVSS VL: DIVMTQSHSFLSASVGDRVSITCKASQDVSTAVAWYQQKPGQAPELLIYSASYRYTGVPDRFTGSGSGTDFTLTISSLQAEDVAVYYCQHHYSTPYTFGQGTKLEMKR — what was its pKd?
9.15

Sample 7A6 VH1/Vκ3 humanized antibody (human IgG1, kappa) (antibody, V domains shown, Tested as IgG in supernatant of transiently transfected HEK293 EBNA cells) VH: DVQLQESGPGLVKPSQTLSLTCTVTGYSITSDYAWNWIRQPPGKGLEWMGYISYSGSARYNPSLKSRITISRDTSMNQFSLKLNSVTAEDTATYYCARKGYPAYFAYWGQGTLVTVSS VL: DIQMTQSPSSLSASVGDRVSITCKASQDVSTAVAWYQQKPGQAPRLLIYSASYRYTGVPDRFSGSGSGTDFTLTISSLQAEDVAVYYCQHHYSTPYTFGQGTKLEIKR — what was its pKd?
9.02
